- Tested on: SK-OV-3
- Assay: NCI tumour cell line growth inhibition, 48 h
Active and inactive are the calls of the source. Rule as the data show it: active = GI50 up to about 1.1 µM and inactive = higher.
Your reply should match one of these outcome classes. 1 (yes) (active), 0 (no) (inactive)

Would you mind telling me which call this test gave Cc1ncc([N+](=O)[O-])n1CCNC(=O)CCCCCn1ccnc1[N+](=O)[O-] ?
0 (no)

Would you mind telling me which call this test gave C/C(CC(=O)NC1=CC=C(NC(=O)C/C(C)=N\Nc2ccccc2)CC1)=N/Nc1ccccc1 ?
0 (no)

Would you mind telling me which call this test gave C/C(CC(=O)Nc1ccc([N+](=O)[O-])cc1)=N\NC(N)=O ?
0 (no)

Would you mind telling me which call this test gave C/C(=N/NC(=S)N1CC2CCC(CC2)C1)c1cnccn1 ?
1 (yes)

Would you mind telling me which call this test gave CC1(C)CC(=O)c2c(nc3c(ccc4ccccc43)c2-c2ccc(NC(=O)CCCC(=O)Nc3ccc(-c4c5c(nc6c4ccc4ccccc46)CC(C)(C)CC5=O)cc3)cc2)C1 ?
0 (no)

---

- Test system: SK-MEL-2
- Assay: NCI tumour cell line growth inhibition, 48 h
Calls of active or inactive are those of the source. No stated cut-off is given here; in the data, active = GI50 up to about 1.1 µM and inactive = higher.
Would you kindly list GI50 for each of these molecules?

Return reported GI50; argument: CC1CC[C@@]2(OC1)OC1C[C@H]3[C@@H]4CC[C@H]5CC(OC6OC(CO)C(O)C(OC7OC(CO)C(OC8OC(CO)C(O)C(OC9OC(CO)C(O)C(O)C9O)C8OC8OC(CO)C(O)C(O)C8O)C(O)C7O)C6O)[C@H](O)CC5(C)[C@H]4CCC3(C)C1[C@@H]2C (some centres not stated)
3.27 µM (inactive)

Return reported GI50; argument: c1ccc(NCCSc2nc3ccccc3s2)cc1
30.8 µM (inactive)

Return reported GI50; argument: CC(C)(C)c1ccc2c(c1)OP1(Oc3c(Cl)cc(Cl)c4cccnc34)(O2)Oc2ccc(C(C)(C)C)cc2O1
10.2 µM (inactive)

Return reported GI50; argument: N#Cc1ccccc1OCCOc1ccccc1C#N
> 100 µM (inactive)

Return reported GI50; argument: CCOc1cc(NC(C)=O)ccc1C(=O)NN1C(=O)CSC1c1ccc(O)c(OC)c1 (configuration not stated)
49 µM (inactive)

Return reported GI50; argument: C/C=C\C(CC(=O)NCC(=O)c1c[nH]c2ccccc12)CC(=O)OC (configuration not stated)
> 100 µM (inactive)

Return reported GI50; argument: N#Cc1c(-c2ccccc2)cc(Nc2ccc(Cl)cc2)n2c1nc1ccccc12
2.99 µM (inactive)

Return reported GI50; argument: CCN(CC)c1cccc2c1C1(O)CCC3(CC21)OCCCCO3 (configuration not stated)
> 100 µM (inactive)

Return reported GI50; argument: O=C(N/C(=C\c1ccc(/C=C(\NC(=O)c2ccccc2)c2nc3ccccc3[nH]2)cc1)c1nc2ccccc2[nH]1)c1ccccc1
> 100 µM (inactive)

Return reported GI50; argument: COc1cc2c(cc1OC)CCc1cc(OC)c(OC)cc1CC2
> 100 µM (inactive)

Return reported GI50; argument: CCOC(=O)C12CCCC1(O)N(NC(=O)OC(C)(C)C)C(C)=C2C(=O)OC (configuration not stated)
> 100 µM (inactive)

Return reported GI50; argument: CNc1ncnc2c1cnn2Cc1cn(COCC(O)CO)nn1 (configuration not stated)
> 100 µM (inactive)

Return reported GI50; argument: CCOc1c(OC)cc(-c2nc3n(n2)C(=O)C(CC)S3)cc1OC (configuration not stated)
> 10 µM (inactive)

Return reported GI50; argument: COc1cc2c(cc1O)NC(=O)[C@@H]1CCCN1C2=O
> 100 µM (inactive)

Return reported GI50; argument: COc1cc(/C=C2/SC(c3ccccc3)N(c3ccccc3Cl)C2=O)cc(OC)c1OC (configuration not stated)
33.9 µM (inactive)

Return reported GI50; argument: CN(C)CCn1c2c3ccccc3ccc2c2oc(=O)c3ccccc3c21
17.9 µM (inactive)

Return reported GI50; argument: CC(=O)OCC1OC(N2C(c3ccccc3)=CC(c3ccccc3)C(C#N)=C2S)C(OC(C)=O)C(OC(C)=O)C1OC(C)=O (configuration not stated)
2.27 µM (inactive)

---

- Test system: HT-29
- Assay: NCI tumour cell line growth inhibition, 48 h
Calls of active or inactive are those of the source. Cut-off read from the data, not from the text of the source: active = GI50 up to about 1.1 µM and inactive = higher.
Would you kindly list GI50 for each of these compounds?

Return reported GI50; argument: CCN(CC)c1cccc2c1C1(O)CCC3(CC21)OCCCCO3 (centres undefined)
33.3 µM (inactive)

Return reported GI50; argument: CCCC[C@@H]1CCN2C[C@@H](O)[C@@H](O)[C@H]2[C@@H]1O
> 100 µM (inactive)

Return reported GI50; argument: COc1cc(C(=O)N(C(=S)OCc2ccccn2)c2ccccc2)cc(OC)c1OC
29.9 µM (inactive)

Return reported GI50; argument: CCOC1OC(=O)c2cc3ccc4c(c3c(-c3ccc5c(c3)OCO5)c21)OCO4 (centres undefined)
4.76 µM (inactive)

---

Would you kindly list GI50 for each of these compounds?
- Test system: HCT-15
- Assay: NCI tumour cell line growth inhibition, 48 h

So what GI50 did COC(=O)C(Cc1ccc2c(c1)OCO2)(NC(=O)c1ccccc1)P(=O)(OC)OC (stereo not drawn) get with HCT-15?
> 100 µM

So what GI50 did CCOC(=O)c1[nH]c2cc(OC)c(OC)cc2c1CN(C)C get with HCT-15?
> 100 µM

So what GI50 did N#Cc1c(NC(=S)Nc2ccccc2)sc2c1CCCC2 get with HCT-15?
> 100 µM

---

- Tested on: HCT-116
- Assay: NCI tumour cell line growth inhibition, 48 h
Calls of active or inactive are those of the source. No stated cut-off is given here; in the data, active = GI50 up to about 1.1 µM and inactive = higher.
Your reply should match one of these outcome classes. active, inactive

Would you mind telling me which call this test gave COc1cc(C=C2C(C)=NN(c3cccc(Cl)c3)C23SCC(=O)N3c2nc3ccccc3s2)ccc1O (stereo not given) ?
inactive

Would you mind telling me which call this test gave NC(CCCCNCc1ccccc1O)C(=O)O (stereo not given) ?
inactive

Would you mind telling me which call this test gave O=C1/C(=C\Oc2ccc(F)cc2)N2CCC1CC2 ?
inactive

Would you mind telling me which call this test gave CC(=O)c1ccc2c3c1O[C@H]1c4[nH]c5ccccc5c4C[C@@]4(O)[C@@H](C2)N(CC2CC2)CC[C@]314 ?
inactive

Would you mind telling me which call this test gave CCOC(=O)c1c(N)nn2c1cc1cccccc12 ?
inactive

Would you mind telling me which call this test gave CCc1nc(N)nc(N)c1-c1ccc(NCCc2ccccc2)c([N+](=O)[O-])c1 ?
active

Would you mind telling me which call this test gave CO[C@H]1SC[C@H](OC(C)=O)[C@H](OC(C)=O)[C@H]1OC(C)=O ?
inactive

Would you mind telling me which call this test gave COC(=O)C1=C(O)c2cc(-c3ccccc3)c(-c3ccccc3)c(C#N)c2NC(=O)C1 ?
inactive

Would you mind telling me which call this test gave CC(C)OC(=O)c1ccc(CCC2=CC(=O)C(Br)=CC2=O)cc1 ?
inactive

Would you mind telling me which call this test gave CC(=O)c1c(-c2ccccc2)c(-c2ccc(OCCN(C)C)cc2)n2ccccc12 ?
inactive

Would you mind telling me which call this test gave O=C(CSc1nnc(Cc2ccccc2)o1)Nc1ccc(Cl)cc1Cl ?
inactive

Would you mind telling me which call this test gave COc1ccc(NC(C)=O)cc1N1C(=O)/C(=C\c2ccccc2)SC1c1cc(OC)c(OC)c(OC)c1 (stereo not given) ?
inactive

Would you mind telling me which call this test gave Cc1c(C2Cc3ccccc3N2)c2ccccc2n1C (stereo not given) ?
inactive

Would you mind telling me which call this test gave Cc1cccc(C(C)(C)C)c1NC(=O)CCc1n[nH]c(=S)o1 ?
inactive

Would you mind telling me which call this test gave Cc1c(-c2ccccc2)c(=O)oc2ccc(Cl)cc12 ?
inactive

Would you mind telling me which call this test gave CCOC(=O)C(NC(=O)CC)(N1CCN(c2cc3c(cc2F)c(=O)c(C(=O)O)cn3C2CC2)CC1)C(F)(F)F (stereo not given) ?
inactive

Would you mind telling me which call this test gave O=S(=O)(N/N=C/c1ccc(Cl)cc1Cl)c1ccccc1 ?
inactive

Would you mind telling me which call this test gave COc1ccc(/C=C/c2cc(OC)c(OC(C)=O)c(OC)c2)cc1 ?
inactive

Would you mind telling me which call this test gave CC(=O)Oc1ccc(/C=C/C(=O)NCC(NC(=O)/C=C/c2ccc(OC(C)=O)c(OC(C)=O)c2)C(=O)O)cc1OC(C)=O (stereo not given) ?
inactive

Would you mind telling me which call this test gave N#Cc1c(NC(=S)Nc2ccccc2)sc2c1CCCC2 ?
inactive

Would you mind telling me which call this test gave CN(Cc1cccc2ccsc12)/N=C\c1ccc(Cl)cc1 ?
inactive

Would you mind telling me which call this test gave CCOC(=O)c1[nH]c2cc(OC)c(OC)cc2c1CN(C)C ?
inactive

Would you mind telling me which call this test gave Oc1cc(O)cc(-c2nc3cc(F)ccc3s2)c1 ?
inactive

Would you mind telling me which call this test gave COC1C=COC2(C)Oc3c(C)c(O)c4c(O)c(c(C5SCCS5)c(O)c4c3C2=O)NC(=O)/C(C)=C\C=CC(C)C(O)C(C)C(O)C(C)C(OC(C)=O)C1C (stereo not given) ?
inactive

Would you mind telling me which call this test gave CCCCNN ?
inactive

Would you mind telling me which call this test gave COc1cc(C2S/C(=C/c3ccccc3)C(=O)N2c2ccccc2Cl)cc(OC)c1OC (stereo not given) ?
inactive

Would you mind telling me which call this test gave CN(C)C1C(CO)OC(n2cnc3c(N)ncnc32)C1O (stereo not given) ?
inactive

Would you mind telling me which call this test gave COc1cc(/C=C/C(=O)C2(C(=O)/C=C/c3cc(OC)c(OC)c(OC)c3)CCCCC2)cc(OC)c1OC ?
inactive

Would you mind telling me which call this test gave Cc1cc(OCc2nnc3n2S(=O)(=O)c2ccccc2N3C)ccc1Cl ?
inactive

Would you mind telling me which call this test gave O=[N+]([O-])c1ccc2oc(=N/c3ccccc3)/c(=N\c3ccccc3)[nH]c2c1 ?
inactive
